Assay: Drug excretion in rat urine at 10 mg/kg, po
Type: ADME, organism-based
Conditions: read-out: Drug excretion

- line.notation: "[3H][C@@]1(O)[C@@H](C(F)F)O[C@@H]2SC(NCC)=N[C@@H]2[C@H]1O"
  dose excreted [%]: 75

----------
Experiment: Stability in dog hepatocytes assessed as parent compound remaining at 10 uM incubated for 120 mins
Type: ADME, cell-based, Canis lupus familiaris, Hepatocyte
Conditions: read-out: Stability

- line.notation: "CCNC1=N[C@@H]2[C@@H](O)[C@H](O)[C@@H](C(F)F)O[C@@H]2S1"
  measure.unit: "%"
  remaining at 2 h, 10 µM: 91

----------
Item-by-item account of fold change (FC)
Tested on: Rattus norvegicus
Assay: Elevation of O-protein in rat brain at 3 mg/kg, po measured after 24 hrs relative to control
Type: functional
measured.parameter: fold change (FC)

- line.notation: "CNC1=N[C@@H]2[C@H](F)[C@H](O)[C@@H](CO)O[C@@H]2S1"
  readout.number: 1.45
- line.notation: "CCNC1=N[C@@H]2[C@@H](O)[C@H](O)[C@@H](CF)O[C@@H]2S1"
  readout.number: 1.74
- line.notation: "CCNC1=N[C@@H]2[C@@H](O)[C@H](O)[C@@H](C(F)F)O[C@@H]2S1"
  readout.number: 2.17
- line.notation: "CNC1=N[C@@H]2[C@@H](O)[C@H](O)[C@@H](CF)O[C@@H]2S1"
  readout.number: 1.65
- line.notation: "CN(C)C1=N[C@@H]2[C@@H](O)[C@H](O)[C@@H](CF)O[C@@H]2S1"
  readout.number: 1.77
- line.notation: "CN(C)C1=N[C@@H]2[C@@H](O)[C@H](O)[C@@H](C(F)F)O[C@@H]2S1"
  readout.number: 2.57

----------
Assay: AUC (0 to 24 hrs) in rat assessed as change in histomorphology at 1000 mg/kg, po administered for 7 days and measured on day 8
Format: ADME, organism-based
Set-up: time < 24 hr, dose 1000 mg/kg, route oral
Details: in vivo
measured.parameter: AUC at 24 h (µM·h)

- line.notation: "CCNC1=N[C@@H]2[C@@H](O)[C@H](O)[C@@H](C(F)F)O[C@@H]2S1"
  measure.unit: "µM·h"
  readout.number: 1340

----------
Assay: Half life in rhesus monkey at 1 mg/kg, iv
Format: ADME, organism-based, Macaca mulatta
Conditions: in vivo

- line.notation: "CCNC1=N[C@@H]2[C@@H](O)[C@H](O)[C@@H](C(F)F)O[C@@H]2S1"
  half-life: "84 min"

----------
Assay: Ratio of drug uptake in rat brain to plasma at 3 mg/kg, po measured after 8 hrs
Type: ADME, organism-based
Details: read-out: BPR
Outcome: Fulfilled for Kp at 8 h of at least 1; Not fulfilled for anything lower.

- line.notation: "CN(C)C1=N[C@@H]2[C@@H](O)[C@H](O)[C@@H](CF)O[C@@H]2S1"
  category: "Not fulfilled"
- line.notation: "CNC1=N[C@@H]2C[C@H](O)[C@@H](C(F)F)O[C@@H]2S1"
  category: "Fulfilled"
- line.notation: "CNC1=N[C@@H]2[C@H](F)[C@H](O)[C@@H](CO)O[C@@H]2S1"
  category: "Fulfilled"
- line.notation: "CNC1=N[C@@H]2[C@@H](O)[C@H](O)[C@@H](CF)O[C@@H]2S1"
  category: "Not fulfilled"
- line.notation: "CCNC1=N[C@@H]2[C@@H](O)[C@H](O)[C@@H](CF)O[C@@H]2S1"
  category: "Fulfilled"
- line.notation: "CNC1=N[C@@H]2[C@@H](O)[C@H](O)[C@@H](C(F)F)O[C@@H]2S1"
  category: "Fulfilled"
- line.notation: "CCNC1=N[C@@H]2[C@@H](O)[C@H](O)[C@@H](C(F)F)O[C@@H]2S1"
  category: "Fulfilled"
- line.notation: "CNC1=N[C@@H]2[C@H](F)[C@H](O)[C@@H](C(F)F)O[C@@H]2S1"
  category: "Not fulfilled"
- line.notation: "CCCNC1=N[C@@H]2[C@@H](O)[C@H](O)[C@@H](C(F)F)O[C@@H]2S1"
  category: "Fulfilled"
- line.notation: "CN(C)C1=N[C@@H]2[C@@H](O)[C@H](O)[C@@H](C(F)F)O[C@@H]2S1"
  category: "Fulfilled"
- line.notation: "CCNC1=N[C@@H]2[C@@H](O)[C@H](O)[C@@H](CO)O[C@@H]2S1"
  category: "Not fulfilled"
